measurementNotes: excess molar enthalpy (molar enthalpy of mixing); xn = mol fraction of the nth substance listed
experimentalParameters: 298.15 K; 101 kPa; Liquid; Flow calorimetry; x2 = 0.9
measure: excess molar enthalpy (kcal/mol)
One number for each entry, in kcal/mol.

Below, 3 compounds whose answers are already recorded.
CCCCCC(C)=O [2-heptanone] + C1CCOCC1: 0.00793
O=C1CCCCC1 [cyclohexanone] + C1CCOCC1: 0.01
CCCC(C)=O [pentan-2-one] + C1CCOCC1: 0.0107

// moving on: another record for excess molar enthalpy
-- ask Identify measured excess molar enthalpy associated with O=C1CCCC1 [cyclopentanone] + C1CCOCC1
-- reply 0.0158

* * *

measurementNotes: excess molar enthalpy (molar enthalpy of mixing); xn = mol fraction of the nth substance listed
experimentalParameters: 298.15 K; 101 kPa; Liquid; Flow calorimetry; x2 = 0.25
measure: excess molar enthalpy (kcal/mol)
Answers are plain numbers, in kcal/mol.

Below, 3 compounds whose answers are already recorded.
O=C1CCCC1 [cyclopentanone] + C1CCOCC1: 0.0271
CCCC(C)=O [pentan-2-one] + C1CCOCC1: 0.0144
O=C1CCCCC1 [cyclohexanone] + C1CCOCC1: 0.0139

-- ask Identify measured excess molar enthalpy associated with CCCCCC(C)=O [2-heptanone] + C1CCOCC1
-- reply 0.0082

* * *

I'd appreciate it if you could supply excess molar enthalpy values for the items below.
measurementNotes: excess molar enthalpy (molar enthalpy of mixing); xn = mol fraction of the nth substance listed
experimentalParameters: 298.15 K; 101 kPa; Liquid; Flow calorimetry; x2 = 0.4
Please provide the amount together with its unit, number first.

Below, 3 compounds whose answers are already recorded.
CCCCCC(C)=O [2-heptanone] + C1CCOCC1: 0.0118 kcal/mol
CCCC(C)=O [pentan-2-one] + C1CCOCC1: 0.0197 kcal/mol
O=C1CCCCC1 [cyclohexanone] + C1CCOCC1: 0.0189 kcal/mol

// moving on: another record for excess molar enthalpy
-- ask Identify measured excess molar enthalpy associated with O=C1CCCC1 [cyclopentanone] + C1CCOCC1
-- reply 0.0353 kcal/mol

* * *

measurementNotes: excess molar enthalpy (molar enthalpy of mixing); xn = mol fraction of the nth substance listed
experimentalParameters: 298.15 K; 101 kPa; Liquid; Flow calorimetry; x2 = 0.65
measure: excess molar enthalpy (kcal/mol)
Numbers only, in kcal/mol.

Below, 3 molecules whose answers are already recorded.
O=C1CCCC1 [cyclopentanone] + C1CCOCC1: 0.0357
CCCC(C)=O [pentan-2-one] + C1CCOCC1: 0.0219
CCCCCC(C)=O [2-heptanone] + C1CCOCC1: 0.0146

// moving on: another record for excess molar enthalpy
-- ask Identify measured excess molar enthalpy associated with O=C1CCCCC1 [cyclohexanone] + C1CCOCC1
-- reply 0.0209

* * *

measurementNotes: excess molar enthalpy (molar enthalpy of mixing); xn = mol fraction of the nth substance listed
experimentalParameters: 298.15 K; 101 kPa; Liquid; Flow calorimetry; x2 = 0.15
I'd appreciate it if you could supply excess molar enthalpy values for the items below.
Please provide the amount together with its unit, number first.

For the 2 compounds below, give their excess molar enthalpy values.
1. O=C1CCCC1 [cyclopentanone] + C1CCOCC1
2. CCCC(C)=O [pentan-2-one] + C1CCOCC1

-- reply
1. 0.0181 kcal/mol
2. 0.0092 kcal/mol

For the 2 compounds below, give their excess molar enthalpy values.
1. O=C1CCCCC1 [cyclohexanone] + C1CCOCC1
2. CCCCCC(C)=O [2-heptanone] + C1CCOCC1

-- reply
0.00919 kcal/mol
0.0053 kcal/mol

# credit: the NIST ThermoML archive (doi:10.1021/je025649t)
